Listing: IC50 of selected compounds
- target.entity: H1047R PIK3CA enzyme (Homo sapiens, UniProt P42336, H1047R)
- Sequence (P42336 whole entry H1047R): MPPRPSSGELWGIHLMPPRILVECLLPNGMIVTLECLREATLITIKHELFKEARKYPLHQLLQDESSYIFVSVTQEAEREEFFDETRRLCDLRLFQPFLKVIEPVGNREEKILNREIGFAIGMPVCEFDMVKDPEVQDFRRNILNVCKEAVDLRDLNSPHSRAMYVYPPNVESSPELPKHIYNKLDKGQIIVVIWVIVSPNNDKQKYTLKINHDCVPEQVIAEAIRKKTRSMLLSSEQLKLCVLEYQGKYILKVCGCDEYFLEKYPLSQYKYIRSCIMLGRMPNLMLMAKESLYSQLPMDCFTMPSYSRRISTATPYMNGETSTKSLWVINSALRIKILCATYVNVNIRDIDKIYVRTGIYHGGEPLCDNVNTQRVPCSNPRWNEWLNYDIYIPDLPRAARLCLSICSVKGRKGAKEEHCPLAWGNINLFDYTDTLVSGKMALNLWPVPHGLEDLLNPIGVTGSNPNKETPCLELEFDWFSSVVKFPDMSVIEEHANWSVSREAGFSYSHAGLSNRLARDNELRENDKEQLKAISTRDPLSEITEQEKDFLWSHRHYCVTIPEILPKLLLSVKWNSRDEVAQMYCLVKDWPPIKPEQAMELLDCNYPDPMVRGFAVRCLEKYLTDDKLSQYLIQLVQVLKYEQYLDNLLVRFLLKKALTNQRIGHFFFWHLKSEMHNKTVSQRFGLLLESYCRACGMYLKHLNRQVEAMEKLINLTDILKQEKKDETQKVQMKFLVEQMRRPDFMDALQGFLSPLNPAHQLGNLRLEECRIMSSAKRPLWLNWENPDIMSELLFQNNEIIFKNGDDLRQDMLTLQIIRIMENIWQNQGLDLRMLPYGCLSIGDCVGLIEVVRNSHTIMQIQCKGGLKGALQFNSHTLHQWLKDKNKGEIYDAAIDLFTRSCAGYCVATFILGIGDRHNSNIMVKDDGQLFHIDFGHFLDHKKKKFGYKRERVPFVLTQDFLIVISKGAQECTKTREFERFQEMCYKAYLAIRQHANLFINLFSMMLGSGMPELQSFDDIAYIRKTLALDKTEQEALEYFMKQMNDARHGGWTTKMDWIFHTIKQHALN
- Sequence (P27986 whole entry partner): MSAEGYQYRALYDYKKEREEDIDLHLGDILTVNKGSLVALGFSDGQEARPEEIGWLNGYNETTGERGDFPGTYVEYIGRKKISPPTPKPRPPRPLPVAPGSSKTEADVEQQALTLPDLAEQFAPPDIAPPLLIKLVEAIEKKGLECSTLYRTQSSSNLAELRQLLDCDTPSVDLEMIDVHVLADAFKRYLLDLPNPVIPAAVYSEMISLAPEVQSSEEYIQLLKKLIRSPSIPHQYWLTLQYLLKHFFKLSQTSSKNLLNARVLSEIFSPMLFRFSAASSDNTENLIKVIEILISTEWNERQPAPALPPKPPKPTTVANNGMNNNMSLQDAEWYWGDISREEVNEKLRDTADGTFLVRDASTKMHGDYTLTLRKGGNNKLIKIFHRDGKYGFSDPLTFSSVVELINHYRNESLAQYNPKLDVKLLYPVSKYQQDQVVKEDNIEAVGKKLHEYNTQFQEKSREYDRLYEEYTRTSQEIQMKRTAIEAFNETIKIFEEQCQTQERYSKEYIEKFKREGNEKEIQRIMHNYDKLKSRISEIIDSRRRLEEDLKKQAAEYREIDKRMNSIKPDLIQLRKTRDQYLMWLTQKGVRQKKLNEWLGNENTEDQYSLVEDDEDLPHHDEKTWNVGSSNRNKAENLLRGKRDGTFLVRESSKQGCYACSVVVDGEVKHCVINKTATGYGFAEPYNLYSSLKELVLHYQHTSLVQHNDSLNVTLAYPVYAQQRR
- measurement.description: ADP-Glo Biochemical PIK3CA Kinase Assay

Worked examples, 6 compounds total:
INSERT INTO measurements (compound, measured_property, measured) VALUES
  ('O=C(Nc1cc(OC2CS(=O)(=O)C2)cc2c1C(c1cc(F)ccc1Cl)NC2=O)c1cc(F)cc(C(F)(F)F)c1 (stereo not shown) [Compound I-1149]', 'IC50', '1 to 10 µM'),
  ('Cc1ccccc1-n1[nH]c(=O)c2cccc(NC(=O)c3coc4c(F)cc(Cl)cc34)c21 [Compound I-252]', 'IC50', '0.1 to 0.5 µM'),
  ('O=C(Nc1cc(N2CCOCC2)cc2c1C(c1cc(F)ccc1Cl)NC2=O)c1cc(F)cc(C(F)(F)F)c1 (stereo not shown) [Compound I-1164]', 'IC50', '≤ 0.1 µM'),
  ('O=C(Nc1cc(CN2CCn3ncnc3C2)cc2c1C(c1cc(F)ccc1Cl)NC2=O)c1cc(F)cc(C(F)(F)F)c1 (stereo not shown) [Compound I-1400]', 'IC50', '≤ 0.1 µM'),
  ('O=C(Nc1cc(Br)cc2c1C(c1cc(F)ccc1Cl)NC2=O)c1cc(F)cc(CC(F)F)c1 (stereo not shown) [Compound I-1745]', 'IC50', '1 to 10 µM'),
  ('O=C1N[C@@H](c2cc(F)ccc2Cl)c2c(NC(=O)N3C[C@@](O)(C(F)(F)F)c4cc(F)ccc43)ccc(-n3cccn3)c21 (single isomer, unassigned) [Compound I-2495]', 'IC50', '10 to 100 µM');

Task: Param readout = IC50; param system = H1047R PIK3CA enzyme (Homo sapiens, UniProt P42336, H1047R); param query = COc1cc(C)c(C(=O)Nc2cccc3c2C(c2ccccc2C)NC3=O)cn1 (stereo not shown) [Compound I-501] ; response: value
Result: 10 to 100 µM

Task: # get_value(readout= IC50, system= H1047R PIK3CA enzyme (Homo sapiens, UniProt P42336, H1047R)) for O=C(Nc1cccc2c1C(C1CCCN1)NC2=O)c1cc(F)cc(C(F)(F)F)c1 (racemic) [Compound I-1956]
Result: 10 to 100 µM

Task: What IC50 appears in the records for this compound with H1047R PIK3CA enzyme (Homo sapiens, UniProt P42336, H1047R)? C=CCCCOc1cc(NC(=O)c2cc(F)cc(C(F)(F)F)c2)c2c(c1)C(=O)NC2c1cc(F)ccc1Cl (stereo not shown) [Compound I-1234]
Result: 0.5 to 1 µM

Task: Observed IC50 on H1047R PIK3CA enzyme (Homo sapiens, UniProt P42336, H1047R) for O=C1N[C@H](c2cc(F)ccc2Cl)c2c(NC(=O)N3C[C@H](O)C[C@@H]3CC(F)(F)F)cccc21 (racemic) [Compound I-2163] , please.
Result: 10 to 100 µM

Task: Report IC50 for O=C(Nc1cc(-c2cn3c(F)cnc3cn2)cc2c1[C@@H](c1cc(F)ccc1Cl)NC2=O)c1cc(F)cc(C(F)(F)F)c1 [Compound I-1877] tested on H1047R PIK3CA enzyme (Homo sapiens, UniProt P42336, H1047R).
Result: 1 to 10 µM

Task: Which measured IC50 belongs to O=C(Nc1cc(-n2ccnc2)cc2c1[C@@H](c1cc(F)ccc1Cl)NC2=O)c1cc(F)cc(C(F)(F)F)c1 (stereo in doubt) [Compound I-1125] , tested on H1047R PIK3CA enzyme (Homo sapiens, UniProt P42336, H1047R)?
Result: 0.1 to 0.5 µM

Task: Notebook: pull reported IC50 for H1047R PIK3CA enzyme (Homo sapiens, UniProt P42336, H1047R), entry C[C@H](C#N)Oc1cc(NC(=O)c2cc(F)cc(C(F)(F)F)c2)c2c(c1)C(=O)N[C@H]2c1cc(F)ccc1Cl (single isomer, unassigned) [Compound I-2006]
Result: ≤ 0.1 µM
